Values were extracted from BindingDB's records for patent US20230365554.

- Assayed Target: Casein kinase I isoform delta (Homo sapiens)
- Sequence (P48730 whole entry, canonical isoform): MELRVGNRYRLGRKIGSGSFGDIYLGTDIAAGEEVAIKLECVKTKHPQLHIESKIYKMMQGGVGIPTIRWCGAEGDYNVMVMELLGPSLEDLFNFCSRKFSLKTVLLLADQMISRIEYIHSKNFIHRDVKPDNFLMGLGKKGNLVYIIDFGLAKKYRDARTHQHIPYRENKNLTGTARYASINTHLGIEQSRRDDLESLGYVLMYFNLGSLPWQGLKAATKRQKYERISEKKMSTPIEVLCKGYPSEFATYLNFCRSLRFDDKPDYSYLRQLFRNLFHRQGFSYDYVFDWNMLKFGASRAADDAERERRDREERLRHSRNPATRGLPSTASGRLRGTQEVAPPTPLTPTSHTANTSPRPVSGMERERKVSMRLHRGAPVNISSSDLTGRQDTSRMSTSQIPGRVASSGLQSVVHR
- Protocol Summary: CSNK1D Assay
pIC50: −log10 of the molar value.
Catalogue of compounds with associated pIC50

# Compound, pIC50
measured = [
    ("CC1CN(C)C(=O)c2c1[nH]c(-c1ccnc(NC(=O)C(CC(F)F)c3ccc(F)cc3)c1)c2Nc1ccccc1 (mixture of isomers) [US20230365554, Example 10]", 8.04),
    ("Cc1cn(C)c(=O)c2c(Nc3ccccc3)c(-c3ccnc(NC(=O)Cc4ccc(F)cc4)c3)[nH]c12 [US20230365554, Example 38]", 8.18),
]
